Data origin, for the record: ChEMBL document CHEMBL4513141

- System: Escherichia coli
- study conditions: Concentration 20 uM; ASSAY_TEST Inhibition of Bacterial Growth; detection method Absorption (OD600); MEDIA CAMHB; plate type 384well; NBS; CORNING #3640; time 18 hr
- Description: Antibacterial activity against Escherichia coli ATCC 25922 (CO-ADD:GN_001); MIC in CAMBH media using NBS plates, by OD(600)
Entries with a potency or affinity are not part of this list.
property label: Inhibition (%)
Reply numerically in %, unit not repeated.

Prompt: Form field: reported Inhibition of "Cl.O.O=C(c1ccc(F)cc1)C1CCN(CCn2c(=S)[nH]c3ccccc3c2=O)CC1"
Response: 1.4

Prompt: Also, "C[C@H](CS)C(=O)N1CCC[C@H]1C(=O)O" please.
Response: 4.92

Prompt: Also, Cl.NC[C@H]1CC[C@H](C(=O)Oc2ccc(CCC(=O)O)cc2)CC1 [CETRAXATE HYDROCHLORIDE] please.
Response: -0.51

Prompt: Also, "Cc1[nH]c(=O)c(C#N)cc1-c1ccncc1" please.
Response: -0.64

Prompt: Also, CC(Oc1c(Cl)cccc1Cl)C1=NCCN1.Cl (stereo unspecified) [LOFEXIDINE HYDROCHLORIDE] please.
Response: 0.12

Prompt: Also, CC[C@H](C)C(=O)O[C@H]1C[C@H](O)C=C2C=C[C@H](C)[C@H](CC[C@@H](O)C[C@@H](O)CC(=O)[O-])[C@H]21.[Na+] [PRAVASTATIN SODIUM] please.
Response: 2.41
